target.of.assay: human sphingosine-1-phosphate receptor 1 (S1P1) (Homo sapiens)
experiment.summary: Inhibition of cAMP production (HTRF cAMP HiRange), S1P1 CHO-K1 cells
Type: cell-based
experimental.conditions: CHO-K1; inhibition of cAMP production; efficacy normalized to maximum efficacy of fingolimod; read-out: hS1P1 CAMP SPAN
Sequence (P21453 whole entry): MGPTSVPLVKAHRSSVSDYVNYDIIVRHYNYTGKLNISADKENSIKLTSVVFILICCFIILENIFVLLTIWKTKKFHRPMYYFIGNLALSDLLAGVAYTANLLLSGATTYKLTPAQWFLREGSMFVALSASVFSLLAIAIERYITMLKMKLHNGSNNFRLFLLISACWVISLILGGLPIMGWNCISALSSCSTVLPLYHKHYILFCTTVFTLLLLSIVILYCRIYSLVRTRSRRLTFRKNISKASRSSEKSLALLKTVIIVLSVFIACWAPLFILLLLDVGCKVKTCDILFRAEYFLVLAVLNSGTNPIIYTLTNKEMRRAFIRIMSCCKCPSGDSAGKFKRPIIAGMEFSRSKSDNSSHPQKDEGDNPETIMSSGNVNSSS
observation.type: Emax

| input.smiles | Emax |
| --- | --- |
| Cc1ccc(-c2nc(-c3ccc4c(c3)nnn4C3CCCC3)no2)cc1 | < 75% |

Endpoint output: Emax of `CC(C)n1nnc2cc(-c3ncc(-c4ccccc4Br)s3)ccc21` . Value?
< 75%

Endpoint output: Emax of `c1ccc(-c2noc(-c3ccc4c(c3)nnn4C3CCCC3)n2)cc1` . Value?
> 75%

----------
Listed next: entries and their corresponding EC50.
target.of.assay: human sphingosine-1-phosphate receptor 1 (S1P1) (Homo sapiens)
experiment.summary: β-Arrestin2 recruitment assay (PathHunter), S1P1 CHO-K1 cells
Type: cell-based
experimental.conditions: β-arrestin2 recruitment, S1P1; read-out: hS1P1 B-arrestin2 pEC50 (converted)
Description: Stable clonal Chinese hamster ovary K1 (CHO-K1) cells co-expressing EA-β-arrestin2 and the human sphingosine-1-phosphate receptor 1 (NM_001400, S1P1) with a C-terminal Prolink™ tag were purchased from DiscoverX corporation (Cat #: 93-0207C2). […] Agonist-promoted β-arrestin2 recruitment to the sphingosine-1-phosphate 1 receptor was determined using the β-arrestin PathHunter® Detection kit (DiscoverX Corporation, Cat #: 93-0001). […]
Sequence (P21453 whole entry): as above
Sequence (P32121 whole entry partner): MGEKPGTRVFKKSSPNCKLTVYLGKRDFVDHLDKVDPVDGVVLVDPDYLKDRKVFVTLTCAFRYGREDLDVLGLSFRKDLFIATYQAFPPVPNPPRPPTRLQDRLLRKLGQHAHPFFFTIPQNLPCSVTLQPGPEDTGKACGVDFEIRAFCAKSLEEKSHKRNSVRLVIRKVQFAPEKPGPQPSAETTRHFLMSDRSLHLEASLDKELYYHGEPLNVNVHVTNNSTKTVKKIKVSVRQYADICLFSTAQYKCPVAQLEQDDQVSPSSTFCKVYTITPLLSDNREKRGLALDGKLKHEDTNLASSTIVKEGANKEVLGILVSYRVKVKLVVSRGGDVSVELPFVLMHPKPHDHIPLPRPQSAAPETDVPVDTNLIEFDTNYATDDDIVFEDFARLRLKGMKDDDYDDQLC

Endpoint output: EC50 of `N#Cc1cc(-c2nnc(-c3ccc4[nH]c(=O)oc4c3)o2)ccc1NCC(F)F` . Value?
< 10 µM

Endpoint output: EC50 of `CC(C)n1ccc2cc(-c3noc(-c4ccncc4)n3)ccc21` . Value?
< 10 µM

Endpoint output: EC50 of `Cc1ccccc1-c1csc(-c2cnc3c(ccn3C(C)C)c2)n1` . Value?
> 10 µM

Endpoint output: EC50 of `COc1ccccc1-c1nnc(-c2ccc3c(c2)oc(=O)n3C)o1` . Value?
< 10 µM

Endpoint output: EC50 of `CC(C)n1ccc2cc(-c3noc(-c4ccccc4F)n3)ccc21` . Value?
< 10 µM

Endpoint output: EC50 of `CCC1(CC)CC(=O)c2cc(-c3noc(-c4cccnc4)n3)ccc2O1` . Value?
< 10 µM

Endpoint output: EC50 of `Cn1cnc2ccc(-c3nnc(-c4ccc(NC(C)(C)CO)c(C#N)c4)o3)cc21` . Value?
> 10 µM

Endpoint output: EC50 of `Cc1cccc2nc(-c3ccc4c(c3)nnn4CC(C)C)oc12` . Value?
> 10 µM

----------
target.of.assay: human sphingosine-1-phosphate receptor 1 (S1P1) (Homo sapiens)
experiment.summary: β-Arrestin2 recruitment assay (PathHunter), S1P1 CHO-K1 cells
Format: cell-based
experimental.conditions: β-arrestin2 recruitment; potency; read-out: hS1P1 B-arrestin2 pEC50 (converted)
Listed next: entries and their corresponding EC50.

| input.smiles | EC50 |
| --- | --- |
| CC(C)n1nnc2cc(-c3ncc(-c4ccccc4Br)s3)ccc21 | > 10 µM |
| COc1ccc(-c2nc(-c3ccc4c(c3)nnn4C3CCCC3)no2)cc1 | > 10 µM |
| COc1ccc(-c2noc(-c3ccc4c(c3)nnn4CC(C)(C)O)n2)c(C)c1 | < 10 µM |
| C=CCNc1ccc(-c2nc(-c3ccc4[nH]nnc4c3)no2)cc1C#N | < 10 µM |
| Brc1ccccc1-c1nc(-c2ccc3c(c2)nnn3C2CCCC2)no1 | < 10 µM |

Endpoint output: EC50 of `COc1ccc(-c2nc(-c3cccc4[nH]ccc34)ns2)cc1` . Value?
> 10 µM

Endpoint output: EC50 of `COc1ccccc1-c1cnc(-c2ccc3c(c2)nnn3C(C)C)s1` . Value?
> 10 µM

Endpoint output: EC50 of `C=CCn1nnc2cc(-c3noc(-c4ccccc4Br)n3)ccc21` . Value?
> 10 µM

Endpoint output: EC50 of `CCC1(CC)CC(=O)c2cc(-c3nc(-c4ccc5[nH]ncc5c4)no3)ccc2O1` . Value?
< 10 µM

Endpoint output: EC50 of `CCC1(CC)CC(=O)c2cc(-c3nc(-c4ccc(C(=O)N(C)C)cc4)no3)ccc2O1` . Value?
> 10 µM

Endpoint output: EC50 of `CCC1(CC)CC(=O)c2cc(-c3nc(-c4ccccc4OC)ns3)ccc2O1` . Value?
> 10 µM

Endpoint output: EC50 of `Cc1ccccc1-c1nc(-c2ccc3c(c2)nnn3C2CCCC2)no1` . Value?
< 10 µM

Endpoint output: EC50 of `CCC1(CC)CC(=O)c2cc(-c3nc(-c4ccc(C)s4)no3)ccc2O1` . Value?
< 10 µM

Endpoint output: EC50 of `CC(C)n1nnc2cc(-c3nc(-c4cccc5c4OCCC5)no3)ccc21` . Value?
< 10 µM

Endpoint output: EC50 of `CCC1(CC)CC(=O)c2cc(-c3nc(-c4cccnc4O)no3)ccc2O1` . Value?
> 10 µM

Endpoint output: EC50 of `Cc1ccccc1-c1nc(-c2ccc3c(c2)nnn3C(C)C)no1` . Value?
< 10 µM

Endpoint output: EC50 of `CCCn1nnc2cc(-c3nc(-c4ccc(F)cc4)no3)ccc21` . Value?
> 10 µM

Endpoint output: EC50 of `Cc1ccccc1-c1noc(-c2ccc3c(c2)nnn3C(C)(C)C)n1` . Value?
< 10 µM

Endpoint output: EC50 of `Cc1ccccc1-c1noc(-c2ccc3c(c2)nnn3C2CC2)n1` . Value?
< 10 µM

----------
target.of.assay: human sphingosine-1-phosphate receptor 1 (S1P1) (Homo sapiens)
experiment.summary: β-Arrestin2 recruitment assay (PathHunter), S1P1 CHO-K1 cells
Type: cell-based
experimental.conditions: CHO-K1; efficacy normalized to maximum efficacy of fingolimod; read-out: hS1P1 B-arrestin2 SPAN
observation.type: Emax

// known answers, use as guide
| compound | Emax |
| --- | --- |
| CCC1(CC)CC(=O)c2cc(-c3nc(-c4cnccn4)no3)ccc2O1 | > 75% |
| CC(C)Nc1ccc(-c2nnc(-c3ccc4[nH]c(=O)oc4c3)o2)cc1C#N | > 75% |
| N#Cc1cc(-c2nnc(-c3ccc4[nH]c(=O)oc4c3)o2)ccc1NCCF | > 75% |

Endpoint output: Emax of `COc1ccc2oc(-c3ccc4c(c3)nnn4C(C)C)nc2c1` . Value?
> 75%

Endpoint output: Emax of `CCC1(CC)CC(=O)c2cc(-c3nc(-c4cncc(NC(C)=O)c4)no3)ccc2O1` . Value?
< 75%

Endpoint output: Emax of `CCC1(CC)C/C(=N/O)c2cc(-c3nc(-c4cccnc4)no3)ccc2O1` . Value?
> 75%

Endpoint output: Emax of `CC(C)n1nnc2cc(-c3cc(-c4ccccc4)n(C)c3)ccc21` . Value?
< 75%

Endpoint output: Emax of `CCC1(CC)CC(=O)c2cc(-c3nc(-c4ccoc4)no3)ccc2O1` . Value?
> 75%

Endpoint output: Emax of CC1CC(=O)c2ccc(-c3nc(-c4cccnc4)no3)cc2O1 (stereo not drawn) . Value?
< 75%

Endpoint output: Emax of `CC(C)Nc1ccc(-c2nc(-c3ccc4oc(=O)[nH]c4c3)no2)cc1C#N` . Value?
> 75%

Endpoint output: Emax of `CC(C)Nc1ccc(-c2nnc(-c3ccc4ncn(C)c4c3)o2)cc1C#N` . Value?
> 75%

Endpoint output: Emax of `CCC1(CC)CC(=O)c2cc(-c3nc(-c4ccc5nonc5c4)no3)ccc2O1` . Value?
< 75%

Endpoint output: Emax of `N#Cc1cc(-c2nc(-c3ccc4c(c3)NC(=O)C4)no2)ccc1NCC1CC1` . Value?
> 75%

Endpoint output: Emax of `CC(C)n1ccc2cc(-c3nsc(-c4ccccc4F)n3)ccc21` . Value?
< 75%

Endpoint output: Emax of `CC(C)(CO)n1nnc2cc(-c3noc(-c4ccccc4Cl)n3)ccc21` . Value?
< 75%

----------
target.of.assay: UniProt P21453
experiment.summary: Inhibition of cAMP production (HTRF cAMP HiRange), S1P1 CHO-K1 cells
Type: cell-based
experimental.conditions: inhibition of cAMP production, S1P1; read-out: hS1P1 CAMP pEC50 (converted)
Listed next: entries and their corresponding EC50.

// known answers, use as guide
| compound | EC50 |
| --- | --- |
| N#Cc1cc(-c2nnc(-c3cccc4[nH]cnc34)o2)ccc1NCC(F)F [Compound 586] | < 316 nM |
| COc1cnccc1-c1nc(-c2ccc3c(ccn3C(C)C)c2)no1 [Compound 391] | < 316 nM |
| COc1cccc(-c2csc(-c3ccc4c(ccn4C(C)C)c3)n2)c1 [Compound 405] | > 316 nM |
| CC1(C)Oc2ccc(-c3nc(-c4cccnc4)no3)cc2C1=O [Compound 481] | > 316 nM |
| O=C1CC(CO)(CO)Oc2ccc(-c3nc(-c4cccnc4)no3)cc21 [Compound 478] | > 316 nM |

Missing value: EC50, UniProt P21453, entry CC(C)(CO)n1nnc2cc(-c3noc(-c4cccnc4F)n3)ccc21 [Compound 643] . Fill in?
> 316 nM

Missing value: EC50, UniProt P21453, entry CCC1(CC)CC(=O)c2cc(-c3nc(-c4cncnc4)no3)ccc2O1 [Compound 620] . Fill in?
< 316 nM

Missing value: EC50, UniProt P21453, entry CCC1(CC)CC(=O)c2cc(-c3noc(-c4cccnc4)n3)ccc2O1 [Compound 559] . Fill in?
< 316 nM

Missing value: EC50, UniProt P21453, entry COc1cccc2oc(-c3ccc4c(c3)nnn4CC(C)C)nc12 [Compound 450] . Fill in?
< 316 nM

Missing value: EC50, UniProt P21453, entry CC(C)(CO)n1nnc2cc(-c3noc(-c4ccccc4Cl)n3)ccc21 [Compound 618] . Fill in?
> 316 nM

Missing value: EC50, UniProt P21453, entry COc1ccccc1-c1noc(-c2ccc3c(ccn3C(C)C)c2)n1 [Compound 372] . Fill in?
< 316 nM

Missing value: EC50, UniProt P21453, entry CC(C)n1nnc2cc(-c3nc(-c4ccccc4Br)no3)cnc21 [Compound 413] . Fill in?
< 316 nM

Values compiled from patent US20230114241A1.
